Test system: CAOV3
Procedure Text: Primary qHTS to identify gynecologic anti-cancer compounds using libraries of approved drugs and bioactive compounds (AID 1345084); further: nearly all actives have a fitted effect of over 55% in size
Condition Context: Gynecologic cancer cell panel viability, ATPlite luminescence, 48 h; series mostly up to 57.5 µM
Results filed as inconclusive are left out. Activity calls are given as the source filed them. The call rests on the fitted dose curve; in most records, active means well fitted cell-killing curve with a large enough effect; inconclusive means small, poorly fitted or top-dose-only effect, or effect the other way; inactive means flat fitted curve, though single readings scatter.
# valid calls are active, inactive; nothing else

- Compound: "O=C(OC1C=C(CO)C2C(OC3OC(CO)C(O)C(O)C3O)OC=CC12)c1ccc(O)cc1 (configuration not stated)"
  Group: "inactive"
- Compound: "C[C@H]1CC[C@@]2(OC1)O[C@H]1CC3C4CC[C@H]5C[C@@H](O)[C@H](O)C[C@]5(C)C4=CC(=O)[C@]3(C)[C@H]1[C@@H]2C (some centres not stated)"
  Group: "inactive"

IN: Record lookup: outcome of this test for C/C(=C\CCC(C)CCO)C(=O)OC1(C)CCC2C(C(=O)O)=COC(OC3OC(CO)C(O)C(O)C3O)C21 (configuration not stated) ?
OUT: inactive

IN: Record lookup: outcome of this test for "CC(=O)O[C@H]1C[C@@]2(C)[C@@H](CC[C@H]3[C@@]4(C)C=CC(=O)[C@@H](C)[C@@H]4[C@H](O)C(=O)[C@@]32C)/C1=C(/CCC=C(C)C)C(=O)O" ?
OUT: inactive

IN: Record lookup: outcome of this test for CC(C)Oc1ccc(C(=O)NC(CNC(=O)CN(C)C)Cc2ccc(-c3cn4cccc(C(C)O)c4n3)cc2)cc1Cl (configuration not stated) ?
OUT: inactive

IN: Record lookup: outcome of this test for "C=C1C[C@]23C[C@H]1CC[C@H]2[C@@]1(C)CCC[C@@]2(C)C(=O)O[C@@H]([C@@H]3O)[C@@H]12" ?
OUT: inactive

IN: Record lookup: outcome of this test for "CC(C)(F)C[C@@H](N[C@@H](c1ccc(-c2ccc(S(C)(=O)=O)cc2)cc1)C(F)(F)F)C(=O)NC1(C#N)CC1" ?
OUT: inactive

IN: Record lookup: outcome of this test for O=C(O[C@H]1[C@@H]2C[C@@H]3OC[C@](O)([C@@H]1Cl)[C@H]2C(O[C@@H]1O[C@H](CO)[C@@H](O)[C@H](O)[C@H]1O)O3)c1ccc(O)c(O)c1 (some centres not stated) ?
OUT: inactive
